Cited source: PubChem BioAssay AID686954

- assayed system: Protein artemis (Homo sapiens) (UniProt Q96SD1)
- Sequence (Q96SD1 whole entry, looked up): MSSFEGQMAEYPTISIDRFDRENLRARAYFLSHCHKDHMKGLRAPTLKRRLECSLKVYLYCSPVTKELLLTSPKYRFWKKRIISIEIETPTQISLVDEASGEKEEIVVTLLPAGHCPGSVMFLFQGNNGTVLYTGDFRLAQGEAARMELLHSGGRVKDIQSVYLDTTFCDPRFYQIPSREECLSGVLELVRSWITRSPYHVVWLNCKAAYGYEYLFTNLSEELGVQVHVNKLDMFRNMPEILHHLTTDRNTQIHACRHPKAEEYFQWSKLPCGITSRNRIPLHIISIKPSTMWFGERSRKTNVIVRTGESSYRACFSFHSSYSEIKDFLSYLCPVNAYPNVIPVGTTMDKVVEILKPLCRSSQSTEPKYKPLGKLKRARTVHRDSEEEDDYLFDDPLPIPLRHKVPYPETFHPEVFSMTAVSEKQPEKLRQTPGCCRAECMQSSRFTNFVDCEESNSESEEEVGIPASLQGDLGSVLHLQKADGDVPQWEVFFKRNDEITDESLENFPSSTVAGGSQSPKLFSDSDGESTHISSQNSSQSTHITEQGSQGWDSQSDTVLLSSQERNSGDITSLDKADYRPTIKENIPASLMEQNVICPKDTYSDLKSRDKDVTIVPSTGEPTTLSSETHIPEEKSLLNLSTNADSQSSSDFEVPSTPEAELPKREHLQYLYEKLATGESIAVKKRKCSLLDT
- assay name: blockers of Artemis DNA hairpin overhang cleavage – biochemical, fluorescence intensity, FAM/BHQ-1 hairpin substrate, primary screen (AID 686954)
- settings: recombinant Artemis, quenched FAM hairpin cleavage fluorescence; at 10 µM
Out of some 30,000 compounds screened, about 240 (0.8%) were called active.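 Rule for the calls: active = at 10 µM dose, at least 30% inhibition, measured as corrected fluorescence normalized to stimulator and neutral control wells; inactive = the rest.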 Many of the other results were omitted from the sample, so actives are more common in it than they were.
One label from this list, please: yes (1) for active, no (0) for inactive

See these solved cases before continuing.
{"columns": ["structure", "category"],
 "data": [
  ["CC(=O)Oc1ccc(NC(=O)CCC2CCCCC2)c(C(=O)O)c1", "no (0)"],
  ["CCC(=O)NNc1cc(=O)c2c(=O)n(C)c(=O)n(C)c2[nH]1", "no (0)"],
  ["Cc1ccc(OCCCC(=O)N2CCOCC2)c(C)c1", "no (0)"],
  ["CCOc1cc(C(=S)N2CCOCC2)ccc1O", "yes (1)"],
  ["O=C(Nc1ccccc1Cl)O/N=C(/c1ccccc1)c1ccccn1", "no (0)"]
]}

Note: attention shifts to another entry.
**Q:** // param item: `COc1cc(C(=S)N2CCOCC2)cc(OC)c1OC(=O)c1cc([N+](=O)[O-])cc([N+](=O)[O-])c1` ; yields the recorded call
**A:** no (0)

###

// reported inhibition for each item listed
- assayed system: Protein artemis (Homo sapiens)
- assay name: blockers of Artemis DNA hairpin overhang cleavage – biochemical, fluorescence intensity, FAM/BHQ-1 hairpin substrate, primary screen (AID 686954)
- settings: recombinant Artemis, quenched FAM hairpin cleavage fluorescence; at 10 µM; hits give high values
Screen size: about 30,000 compounds; about 240 (0.8%) were called active. Many of the other results were omitted from the sample, so actives are more common in it than they were.
Answer in %, number only, no unit symbol.

{"columns": ["compound", "inhibition / %"],
 "data": [
  ["Cc1ccc(C(=O)Nc2c(C#N)c(C)c(C)n2Cc2ccccc2)cc1", -5.83],
  ["CCCc1ccc(OCc2ccc(C(=O)N/N=C/c3cccc([N+](=O)[O-])c3)o2)c(OC)c1", -9.45],
  ["Cc1ccc(C(=O)OC2=CC(=O)CC(C)(C)C2)cc1", -0.31]
]}

**Q:** Which inhibition is reported for this compound? `COc1ccc(OC)c(Nc2nc(-c3ccc(O)c(O)c3)cs2)c1`
**A:** 42.1

**Q:** Which inhibition is reported for this compound? `CS(=O)(=O)n1nc(-c2ccccc2)nc1NCc1ccco1`
**A:** -21.9

**Q:** Which inhibition is reported for this compound? `O=C(/C=C/c1ccccc1)c1ccoc1`
**A:** -1.46

**Q:** Which inhibition is reported for this compound? Cc1sc(NC(=O)C2C3CCC(O3)C2C(=O)O)c(C(=O)OC(C)C)c1-c1ccc(Cl)cc1 (configuration not stated)
**A:** 34

**Q:** Which inhibition is reported for this compound? CC(C)(C)NS(=O)(=O)CC12CCC(CC1=O)C2(C)C (configuration not stated)
**A:** -3.02

###

- assayed system: Protein artemis (Homo sapiens)
- assay name: blockers of Artemis DNA hairpin overhang cleavage – biochemical, fluorescence intensity, FAM/BHQ-1 hairpin substrate, primary screen (AID 686954)
- settings: recombinant Artemis, quenched FAM hairpin cleavage fluorescence; at 10 µM; hits give high values
Hit rate of the full screen: of about 30,000 compounds, about 240 (0.8%) were called active. Many of the other results were omitted from the sample, so actives are more common in it than they were.
value type: inhibition (%)
Answer in %, number only, no unit symbol.

Consider the following illustrative entries.
{"columns": ["compound", "inhibition (%)"],
 "data": [
  ["O=C(COc1ccc(/C=N/NS(=O)(=O)c2ccccc2)cc1)NCCc1ccccc1", 5.78],
  ["NC(=O)c1ccccc1NC(=O)c1ccccc1F", 3.21],
  ["CN1CCN(Cc2c(O)ccc3c2oc(=O)c2ccccc23)CC1", -4.24]
]}

**Q:** Find inhibition (Protein artemis (Homo sapiens)) for the entry `CC1(C)Cc2ccccc2-c2nnc(-c3cccc(O)c3)n21`
**A:** -6.85

**Q:** Find inhibition (Protein artemis (Homo sapiens)) for the entry `Cc1nnc(NC(=O)CCCOc2ccccc2)s1`
**A:** -2.98

**Q:** Find inhibition (Protein artemis (Homo sapiens)) for the entry CC1CN(c2nc(-c3ccccc3)nnc2-c2ccccc2)CC(C)O1 (configuration not stated)
**A:** 3.23

**Q:** Find inhibition (Protein artemis (Homo sapiens)) for the entry `COc1ccc(CN2CCn3ncc(C(=O)Nc4ccc(Cl)cc4Cl)c3C2=O)cc1`
**A:** -5.33
